Assign Cholesterol-free media + simvastatin (0.04 μM) to each entry below.
tested on: NCI-H292 lung cancer cells; test: FDA drug screening, complete media vs cholesterol-free media with simvastatin (TABLE 2); type: cell-based, human; conditions: NCI-H292 cells, FDA drug library screen, cholesterol-free media with simvastatin 0.04 μM
// no unit, no text: just the number

Query: What value of Cholesterol-free media + simvastatin (0.04 μM) has been reported for the following compound? Cc1onc(-c2c(Cl)cccc2Cl)c1C(=O)N[C@@H]1C(=O)N2[C@@H]1SC(C)(C)[C@@H]2C(=O)O [Dicloxacillin (Sodium hydrate)]
Response: 1.145

Query: Moving on to the next compound: Cc1ncc(C[n+]2csc(CCO)c2C)c(N)n1 [Thiamine monochloride]
Response: 1.042

Query: And what about the compound CCC1(C)CC(=O)NC1=O (stereo not shown) [Ethosuximide] ?
Response: 1.133

Query: Also need NCCCC(O)(P(=O)(O)O)P(=O)(O)O [Alendronate (sodium hydrate)] , thanks.
Response: 0.388

====

Can you tell me Complete for the items I'm about to list?
system: NCI-H292 lung cancer cells; assay: FDA drug screening, complete media vs cholesterol-free media without statin (TABLE 1); assay type: cell-based, human; conditions: NCI-H292 cells, complete media
Structures can show the parent of a compound that is named as a salt.

Query: Provide the documented Complete with NCI-H292 lung cancer cells as the system for Cc1ccsc1C(=CCCN1CCC[C@@H](C(=O)O)C1)c1sccc1C [Tiagabine (hydrochloride)]
Response: 1.159

Query: Also check O=C(O)c1ccc(NC(=O)[C@H](Cc2ccc(O)cc2)NC(=O)c2ccccc2)cc1 [Bentiromide]
Response: 0.8729

Query: Please do the same for Cc1onc(-c2ccccc2Cl)c1C(=O)N[C@@H]1C(=O)N2[C@@H]1SC(C)(C)[C@@H]2C(=O)O [Cloxacillin (sodium monohydrate)] as well.
Response: 0.9266

Query: Same thing, different molecule: CN1CCC[C@@H]1Cc1c[nH]c2ccc(CCS(=O)(=O)c3ccccc3)cc12 [Eletriptan (hydrobromide)]
Response: 1.08

Query: Thanks! And O=c1n(CCCN2CCN(c3cccc(Cl)c3)CC2)nc2ccccn12 [Trazodone (hydrochloride)] ?
Response: 1.032

Query: One more molecule: Nc1ccc(S(=O)(=O)Nc2nccs2)cc1 [Sulfathiazole (sodium)]
Response: 1.047

Query: Note, next up: N#Cc1ccc2[nH]cc(CCCCN3CCN(c4ccc5oc(C(=O)O)cc5c4)CC3)c2c1
Response: 0.7696

====

test system: NCI-H292 lung cancer cells; assay: FDA drug screening, complete media vs cholesterol-free media without statin (TABLE 1); format: cell-based, human; settings: Complete minus Cholesterol-free; greater than 0 enhanced anti-cancer activity, about 0 neutral, below 0 antagonist
Where a name gives a salt, the structure may show the parent alone.
ATTRIBUTE_MEASURED: Difference
A bare number is all that is needed in reply.

Query: I have this molecule here, NC(=O)N[C@@H](CCC(=O)O)C(=O)O , and I need its recorded Difference.
Response: −0.10

Query: Try C[C@](N)(Cc1ccc(O)cc1)C(=O)O next.
Response: −0.10

Query: Entry to check: COc1cc([C@@H]2c3cc4c(cc3[C@@H](O[C@@H]3O[C@@H]5CO[C@@H](c6cccs6)O[C@H]5[C@H](O)[C@H]3O)[C@H]3COC(=O)[C@H]23)OCO4)cc(OC)c1O [Teniposide]
Response: −0.09

Query: Next: CC(=O)[C@@]1(O)CC[C@H]2[C@@H]3C[C@H](C)C4=CC(=O)C=C[C@]4(C)[C@@]3(F)[C@@H](O)C[C@@]21C
Response: −0.08

Query: What about this molecule? C[S+](CC[C@H](N)C(=O)[O-])C[C@H]1O[C@@H](n2cnc3c(N)ncnc32)[C@H](O)[C@@H]1O.Cc1ccc(S(=O)(=O)O)cc1.O=S(=O)(O)O.O=S(=O)(O)O (some centres unmarked)
Response: −0.11

Query: Queued: CCCCC1C(=O)N(c2ccccc2)N(c2ccc(O)cc2)C1=O (centres unmarked)
Response: −0.11

Query: Would you kindly repeat that for CO[C@H]1C[C@@H]2CC[C@@H](C)[C@@](O)(O2)C(=O)C(=O)N2CCCC[C@H]2C(=O)O[C@H]([C@H](C)C[C@@H]2CC[C@@H](O)[C@H](OC)C2)CC(=O)[C@H](C)/C=C(\C)[C@@H](O)[C@@H](OC)C(=O)[C@H](C)C[C@H](C)/C=C/C=C/C=C/1C ?
Response: −0.13

Query: Another molecule to look at: N[C@@H](CC(=O)N1CCn2c(nnc2C(F)(F)F)C1)Cc1cc(F)c(F)cc1F
Response: −0.08

Query: Entry Cc1ccc(/C(=C\CN2CCCC2)c2ccccn2)cc1 [Triprolidine (hydrochloride monohydrate)] please
Response: −0.13

Query: Also COC(=O)C1=C(C)NC(C)=C(C(=O)OC(C)(C)CN(C)CCC(c2ccccc2)c2ccccc2)C1c1cccc([N+](=O)[O-])c1 (centres unmarked) [Lercanidipine (hydrochloride)] , if possible.
Response: −0.18

Query: Same for Cc1cccc(C)c1N(CC(=O)Nc1ccc(-c2ncon2)cc1)C(=O)C1CCS(=O)(=O)CC1
Response: −0.08

Query: Another molecule to look at: NC(=O)c1cccnc1 [Nicotinamide]
Response: −0.17

Query: Same question for Nc1ncnc2c1ncn2[C@@H]1O[C@H](COP(=O)(O)OP(=O)(O)OP(=O)(O)O)[C@@H](O)[C@H]1O please.
Response: −0.10

Query: Another molecule to check: COc1cc2nccc(Oc3ccc(NC(=O)C4(C(=O)Nc5ccc(F)cc5)CC4)cc3)c2cc1OC [Cabozantinib]
Response: −0.08

====

system: NCI-H292 lung cancer cells; test: FDA drug screening, complete media vs cholesterol-free media with simvastatin (TABLE 2); format: cell-based, human; conditions: NCI-H292 cells, FDA drug library screen, cholesterol-free media with simvastatin 0.04 μM
ATTRIBUTE_MEASURED: Cholesterol-free media + simvastatin (0.04 μM)
The answer should be written as a number, with no unit following it.

Query: Entry under review: NC(=O)c1cnccn1 [Pyrazinamide] . Reported Cholesterol-free media + simvastatin (0.04 μM)?
Response: 0.9396

Query: Field entry: CN(C(=O)CN(CCO)CC(=O)N(C)C(C)(C)Cc1ccccc1)C(C)(C)Cc1ccccc1
Response: 1.131

Query: Ok, now C/C(=C(\CCOP(=O)(O)O)SC(=O)c1ccccc1)N(C=O)Cc1cnc(C)nc1N
Response: 1.23

Query: Now consider N#CC(c1ccc(Cl)cc1)c1c(Cl)cc(-n2ncc(=O)[nH]c2=O)cc1Cl (centres unmarked) .
Response: 1.052

Query: Same thing, different compound: CCCCC(CC)COC(=O)c1ccccc1O (centres unmarked) [Octisalate]
Response: 0.992

====

test system: NCI-H292 lung cancer cells; experiment: FDA drug screening, complete media vs cholesterol-free media without statin (TABLE 1); type: cell-based, human; settings: Complete minus Cholesterol-free; >0 enhanced anti-cancer activity, about 0 neutral, <0 antagonist
Where a name gives a salt, the structure may show the parent alone.
Param threshold (-0.2) applies to Difference; output t when value >= threshold, f when value < threshold.

Query: Check if Difference >= -0.2 (inclusive). Item: CC(=O)OCC(=O)[C@@]12OC(C)(C)O[C@@H]1C[C@H]1[C@@H]3C[C@H](F)C4=CC(=O)C=C[C@]4(C)[C@@]3(F)[C@@H](O)C[C@@]12C [Fluocinonide]
Response: t

Query: Now give it for O=C1CN(/N=C/C=C/c2ccc([N+](=O)[O-])o2)C(=O)N1 too.
Response: f

Query: And the next one, CC(=O)NS(=O)(=O)c1ccc(N)cc1 [Sulfacetamide (Sodium)] ?
Response: t

Query: One more compound: C=C1CCC2CC1C2(C)C (stereo not drawn)
Response: f

Query: Same for C=C[C@H]1C[N@@]2CC[C@H]1C[C@H]2[C@H](O)c1ccnc2ccc(OC)cc12 [Quinine (hydrochloride dihydrate)]
Response: t

Query: Continue with CO/N=C1\C[C@]2(C[C@@H]3C[C@@H](C/C=C(\C)C[C@@H](C)/C=C/C=C4\CO[C@@H]5[C@H](O)C(C)=C[C@@H](C(=O)O3)[C@]45O)O2)O[C@H](/C(C)=C/C(C)C)[C@H]1C
Response: f

Query: Next compound: COC[C@H]1C[C@@H](c2nc(-c3ccc4c(c3)COc3cc5c(ccc6nc([C@@H]7CC[C@H](C)N7C(=O)[C@@H](NC(=O)OC)C(C)C)[nH]c65)cc3-4)c[nH]2)N(C(=O)[C@H](NC(=O)OC)c2ccccc2)C1
Response: f

Query: Record: COc1cc(NCc2ccc3nc(N)nc(N)c3c2C)cc(OC)c1OC [Trimetrexate]
Response: t

Query: Check C[C@@H]1O[C@@H]1P(=O)(O)O [Fosfomycin (sodium)] too.
Response: f

Query: Same thing, different compound: C=C[C@H]1C[N@@]2CC[C@H]1C[C@@H]2[C@@H](O)c1ccnc2ccc(OC)cc12 [Quinidine hydrochloride monohydrate]
Response: t

Query: Here is the next compound: O=c1c(-c2ccc(O)cc2)coc2cc(O)ccc12
Response: t

Query: Now try COc1cc([C@@H]2c3cc4c(cc3[C@@H](O[C@@H]3O[C@@H]5CO[C@@H](C)O[C@H]5[C@H](O)[C@H]3O)[C@H]3COC(=O)[C@H]23)OCO4)cc(OC)c1O [Etoposide] .
Response: f

Query: Quick one: CCc1c(C)[nH]c2c1C(=O)C(CN1CCOCC1)CC2 (stereo not drawn) [Molindone (hydrochloride)]
Response: f

Query: Input COc1cc2c(cc1OC)C(=O)C(CC1CCN(Cc3ccccc3)CC1)C2 (stereo not drawn) [Donepezil]
Response: t

Query: What do we get for CNC(=O)c1c(I)c(NC(C)=O)c(I)c(C(=O)O)c1I ?
Response: f

Query: Now this one: CCCOc1ccc(S(=O)(=O)N2CCN(CCO)CC2)cc1-c1nc2c(CCC)cn(CC)c2c(=O)[nH]1 [Mirodenafil (dihydrochloride)]
Response: f

Query: Field entry: COc1cc2nc(N3CCN(C(=O)[C@@H]4CCCO4)CC3)nc(N)c2cc1OC [(S)-Terazosin]
Response: t

Query: Another: CC(C)(CO)[C@H](O)C(=O)NCCC(=O)O.[Na] [D-Pantothenic acid (sodium)]
Response: t

Query: Follow-up item: CC(N/C(=N\C#N)Nc1ccncc1)C(C)(C)C (stereo not drawn) [Pinacidil monohydrate]
Response: f

Query: Similarly, NS(=O)(=O)c1cc(C2(O)NC(=O)c3ccccc32)ccc1Cl (stereo not drawn) ?
Response: f

Query: Ok, now COc1cc2nc(N3CCN(C(=O)C4CCCO4)CC3)nc(N)c2cc1OC (stereo not drawn) [Terazosin (hydrochloride dihydrate)]
Response: t

Query: What do you get for COc1ccc(C(=O)c2ccccc2)c(O)c1 ?
Response: f

Query: Same question for O=C(O[C@H]1CN2CCC1CC2)N1CCc2ccccc2[C@@H]1c1ccccc1 please.
Response: f

Query: Then C=Cc1c(C)c2cc3nc(c(CC(=O)N[C@@H](CC(=O)O)C(=O)O)c4[nH]c(cc5nc(cc1[nH]2)C(C)=C5CC)c(C)c4C(=O)O)[C@@H](CCC(=O)O)[C@@H]3C [Talaporfin (sodium)] ?
Response: f

Query: // same read-out, input: CCCCCCCCN=c1ccn(CCCCCCCCCCn2ccc(=NCCCCCCCC)cc2)cc1 [Octenidine (dihydrochloride)]
Response: t

Query: Also C/C(=C\c1csc(C)n1)[C@@H]1C[C@@H]2O[C@]2(C)CCC[C@H](C)[C@H](O)[C@@H](C)C(=O)C(C)(C)[C@@H](O)CC(=O)N1 [Ixabepilone] , if possible.
Response: t

Query: Repeat for the following compound: CC(C)(C)C(=O)OCOP(=O)(COCCn1cnc2c(N)ncnc21)OCOC(=O)C(C)(C)C
Response: t

Query: And N[C@@H](Cc1cc(I)c(Oc2ccc(O)c(I)c2)c(I)c1)C(=O)O ?
Response: f

Query: Item: CSCC1CN(/N=C/c2ccc([N+](=O)[O-])o2)C(=O)O1 (stereo not drawn)
Response: f

Query: Same question for CNC(=O)c1c(C)oc2cc(Oc3ncnc4cc(OC)c(OC)cc34)ccc12 please.
Response: t
